Below, each entry is listed alongside its reported self-cleavage.
B1: HDV Ribozyme (parent)
chain: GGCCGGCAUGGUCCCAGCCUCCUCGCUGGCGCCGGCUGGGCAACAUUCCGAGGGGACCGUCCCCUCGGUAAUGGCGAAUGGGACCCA

# Variants of: B1
# Assay overview: self-cleavage, relative activity (ratio to wild type); higher = more cleavage; co-transcriptional
Respond numerically, and do not add a unit to the figure.

Solved cases below.
Entry G5A G11U — recorded self-cleavage = 0.0665

Field self-cleavage (entry G40C U46C ) reads 0.117

New cases:
Quick note, self-cleavage for U46G A71U landed at 0.731

Reported self-cleavage ( C33U G53A ) = 0.95
